system: CSK; conditions: concentration: 1 μM, replicates: in singlicate; n = 1;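 further: KINOMEscan kinase panel screen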
VALUE TYPE: %Inh (%)
Output spec: scalar in %, unitless text.

# return recorded %Inh for input c1ccc(Oc2ccc(Nc3ccnc4cc(-c5ccc(CNCCN6CCOCC6)o5)ccc34)cc2)nc1 [GW567145]
77

Answer with the recorded %Inh for the compound listed here: COc1ccc(CNC(=O)NC2CCN(c3ccnc(Nc4ccc(F)cc4)n3)CC2)cc1 [GSK1379788]
0

Give a short answer stating reported %Inh for Cc1cccc(NC(=O)Nc2ccc(Oc3ncnc4ccn(C)c34)cc2)c1 .
0

Determine from records and report %Inh for Cc1ccc(C)c(NC(=O)NC2CCN(c3ccnc(Nc4ccc(F)cc4)n3)C2)c1 (centres unmarked) [GSK1379720]
0

Determine from records and report %Inh for O=C(Nc1n[nH]c2cc(-c3ccoc3)ccc12)C1CC1 [SB-738481]
0

Report %Inh for COc1cc(Nc2nccc(N3CCC(NC(=O)c4cc5ccccc5s4)C3)n2)cc(OC)c1OC (centres unmarked) [GSK1379760]
0

Answer with reported %Inh of Nc1ncc(-c2ccc3nccc(-c4ccncc4)c3c2)cc1S(=O)(=O)N1CCOCC1 [GSK1627798]
0

Identify the reported %Inh for the following entry. Cc1ccc(F)c(C(=O)Nc2cccc(-c3nn4ccccc4c3-c3ccnc(Nc4cccc(F)c4)n3)c2)c1F [GSK361061]
39

====

test system: CDK7; conditions: concentration: 1 μM, replicates: in singlicate; n = 1
Binary call on %Inh: TRUE from 40% upward, FALSE beneath that.

# bool: %Inh of CCS(=O)(=O)c1ccc(OC)c(Nc2nccc(-c3c(-c4cccc(NC(=O)c5c(F)cccc5F)c4)nn4ncccc34)n2)c1 [GSK326180] >= 40%
FALSE

Quick check: does Cc1occc1-c1ncc(OC[C@@H](N)Cc2c[nH]c3ccccc23)cc1-c1ccc2[nH]nc(C)c2c1.O=C(O)C(F)(F)F [GSK682037] have %Inh greater than or equal to 40%?
FALSE

Confirm if %Inh reported for the molecule NCCCC(NC(=O)c1cc(Br)c(-c2ccnc3[nH]ccc23)s1)c1ccccc1.O=C(O)C(F)(F)F.O=C(O)C(F)(F)F (stereo not shown) [GSK1287544] is 40% or above.
FALSE

# bool: %Inh of CCCCc1nn2ncccc2c1-c1ccnc(Nc2ccc(N3CCN(C)CC3)cc2)n1 [GW684941] >= 40%
FALSE

Hi, just wondering whether COC(=O)Nc1nc2cc(Oc3ccc(NC(=O)Nc4cc(C(F)(F)F)ccc4F)cn3)ccc2[nH]1.Cl.Cl [GW681170] shows %Inh of 40% or higher.
TRUE

State whether the measured %Inh reaches 40%, counting equality as reaching it, for COc1cc(Nc2nccc(N3CCC(NC(=O)Nc4cccc(C(C)=O)c4)C3)n2)cc(OC)c1OC (stereo not shown) [GSK1379753]
FALSE

Say whether CNC(=O)c1ccccc1Nc1nc(Nc2ccc(N3CCOCC3)cc2)ncc1Cl.Cl [GSK1576028] shows %Inh of 40% or more.
TRUE

Check if %Inh >= 40% (inclusive). Item: O=C(Nc1cccc(-c2nn3ccccc3c2-c2ccnc(Nc3cccc(F)c3)n2)c1)c1c(F)ccc(F)c1Cl [GSK357952]
FALSE

Form field: %Inh at least 40%? Entry: COc1cc2c(cc1OCCN1CCNCC1)ncc1c3ccc(C#N)cc3[nH]c21
TRUE

Quick check, %Inh >= 40%? CN1CCN(CCCNc2nccc(-c3c(-c4ccc(F)cc4)nn4cc(C(F)(F)F)ccc34)n2)CC1 [GW621581]
FALSE

Check the entry Cn1cc(-c2ccc3c(c2)CCN3C(=O)Cc2cccc(F)c2)c2c(N)ncnc21 [GSK2603358] : does %Inh equal or exceed 40%?
FALSE
